Give measured IC50 for each item. Keep answers brief.
# system-under-test: Kappa-type opioid receptor (Homo sapiens)
# Sequence (P41145 whole entry): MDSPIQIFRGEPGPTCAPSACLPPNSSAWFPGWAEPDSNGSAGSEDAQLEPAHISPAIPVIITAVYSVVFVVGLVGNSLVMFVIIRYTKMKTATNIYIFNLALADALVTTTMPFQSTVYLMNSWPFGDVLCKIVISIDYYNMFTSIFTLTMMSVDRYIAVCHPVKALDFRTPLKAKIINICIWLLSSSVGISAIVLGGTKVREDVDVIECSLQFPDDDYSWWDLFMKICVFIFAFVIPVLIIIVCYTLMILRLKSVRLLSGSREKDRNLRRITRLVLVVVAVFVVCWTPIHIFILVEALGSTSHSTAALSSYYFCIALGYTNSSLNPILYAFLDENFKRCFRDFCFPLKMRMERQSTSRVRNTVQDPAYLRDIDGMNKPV
# Format: functional

Could you tell me IC50 for each of these molecules? They are listed below.
1. C/C(=N\NC(=O)C1COc2ccccc2O1)c1ccccn1 (configuration not stated)
2. O=S(=O)(Nc1cccc2cccnc12)c1ccc(S(=O)(=O)N2CCCC2)cc1

1. > 32 µM
2. > 32 µM

###

# system-under-test: Peroxisome proliferator-activated receptor gamma/Nuclear receptor coactivator 1 (Homo sapiens);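 also: agonist potency as compounds enhance coactivator SRC-1 recruitment to PPARgamma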
# Sequence (P37231 whole entry): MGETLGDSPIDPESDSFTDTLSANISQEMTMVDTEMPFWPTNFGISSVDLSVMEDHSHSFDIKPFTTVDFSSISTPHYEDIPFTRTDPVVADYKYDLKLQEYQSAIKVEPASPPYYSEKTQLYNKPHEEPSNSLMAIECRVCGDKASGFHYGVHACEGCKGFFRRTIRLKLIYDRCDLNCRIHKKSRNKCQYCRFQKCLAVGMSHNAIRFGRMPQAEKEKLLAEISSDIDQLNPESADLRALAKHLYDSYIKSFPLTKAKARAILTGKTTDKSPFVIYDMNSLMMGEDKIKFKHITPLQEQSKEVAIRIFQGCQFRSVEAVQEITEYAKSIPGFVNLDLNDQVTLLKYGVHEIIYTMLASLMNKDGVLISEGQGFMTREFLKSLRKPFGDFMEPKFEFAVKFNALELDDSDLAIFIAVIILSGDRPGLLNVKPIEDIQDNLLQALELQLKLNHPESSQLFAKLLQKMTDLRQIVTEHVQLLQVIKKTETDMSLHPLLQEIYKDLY
# Sequence (Q15788 whole entry, further chain): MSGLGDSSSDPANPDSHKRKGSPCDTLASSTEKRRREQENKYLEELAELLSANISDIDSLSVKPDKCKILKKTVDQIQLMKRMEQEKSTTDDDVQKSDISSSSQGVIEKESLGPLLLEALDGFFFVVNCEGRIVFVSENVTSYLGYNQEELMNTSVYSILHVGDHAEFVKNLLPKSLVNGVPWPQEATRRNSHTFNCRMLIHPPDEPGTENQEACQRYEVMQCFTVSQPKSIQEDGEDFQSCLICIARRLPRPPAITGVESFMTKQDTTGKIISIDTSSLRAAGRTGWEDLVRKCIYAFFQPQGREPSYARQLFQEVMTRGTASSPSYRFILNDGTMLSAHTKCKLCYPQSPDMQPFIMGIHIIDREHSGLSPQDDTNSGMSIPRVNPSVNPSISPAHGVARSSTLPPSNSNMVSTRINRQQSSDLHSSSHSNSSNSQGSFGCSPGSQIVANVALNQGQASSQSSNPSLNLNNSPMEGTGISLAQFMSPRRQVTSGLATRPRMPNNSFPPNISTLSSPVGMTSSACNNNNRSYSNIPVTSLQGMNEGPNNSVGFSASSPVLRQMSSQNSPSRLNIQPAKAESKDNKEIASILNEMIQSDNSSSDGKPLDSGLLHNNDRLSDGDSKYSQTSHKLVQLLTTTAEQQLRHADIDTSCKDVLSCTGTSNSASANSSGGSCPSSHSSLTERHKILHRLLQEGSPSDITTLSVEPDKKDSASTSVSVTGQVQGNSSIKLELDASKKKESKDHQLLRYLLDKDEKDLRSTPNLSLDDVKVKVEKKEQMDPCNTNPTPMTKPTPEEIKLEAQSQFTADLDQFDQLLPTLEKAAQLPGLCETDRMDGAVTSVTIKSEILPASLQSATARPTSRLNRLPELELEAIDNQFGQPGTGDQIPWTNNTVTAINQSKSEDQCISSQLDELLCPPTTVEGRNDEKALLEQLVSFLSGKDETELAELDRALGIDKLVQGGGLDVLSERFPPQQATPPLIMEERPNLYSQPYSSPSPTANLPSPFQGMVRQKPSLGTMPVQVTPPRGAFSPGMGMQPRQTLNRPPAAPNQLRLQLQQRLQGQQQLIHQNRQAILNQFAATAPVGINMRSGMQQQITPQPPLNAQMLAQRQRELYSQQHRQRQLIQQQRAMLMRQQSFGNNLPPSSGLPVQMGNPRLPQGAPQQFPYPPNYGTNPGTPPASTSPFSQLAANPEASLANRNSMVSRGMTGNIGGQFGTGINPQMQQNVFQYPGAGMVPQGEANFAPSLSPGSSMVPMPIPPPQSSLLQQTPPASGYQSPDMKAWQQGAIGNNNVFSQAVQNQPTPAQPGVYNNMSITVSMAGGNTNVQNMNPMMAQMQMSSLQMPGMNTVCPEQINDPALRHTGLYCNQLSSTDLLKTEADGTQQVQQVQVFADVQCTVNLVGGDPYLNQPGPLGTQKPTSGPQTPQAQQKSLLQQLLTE
# Format: functional
quantity: EC50

>>> print(df.to_string())
                           structure_string             test_result
0   Cc1ccc(N/N=C2/C(=N)N(c3ccccc3)NC2=O)cc1  > 79.4 µM (not active)
1  Cc1cc(OCC(=O)Nc2ccc3oc(-c4ccncc4)nc3c2)ccc1Cl    24.8 µM (not active)
2  Cc1ccc(-n2c(N)c(C(=O)N3CCN(C)CC3)sc2=S)cc1  > 79.4 µM (not active)

Please look at the following compound next.
State the recorded EC50 for this entry: COc1c(OC)c(O)c2c(=O)cc(-c3c(O)cccc3O)oc2c1OC
> 79.4 µM (not active)
